- protocolDescription: Clearance in rat at 1 mg/kg, iv dosed as solution in PEG400/EtOH
- Assay type: ADME, organism-based
- Set-up: dose 1 mg/kg, route intravenous
- particulars: in vivo
clearance values for the molecules below.
measurementKind: clearance

smilesNotation	measurementKind	val
COc1ccc(OC)c2c(C(=O)C(=O)N3CCN(C(=O)c4ccccc4)CC3)c[nH]c12	clearance	5.2 mL/min/kg
O=C(C(=O)N1CCN(C(=O)c2ccccc2)CC1)c1c[nH]c2c(F)ccc(F)c12	clearance	46.9 mL/min/kg

---

Vd values for the molecules below.
- protocolDescription: Volume of distribution at steady state in rat at 1 mg/kg, iv dosed as solution in PEG400/EtOH
- Assay type: ADME, organism-based
- Set-up: dose 1 mg/kg, route intravenous
- particulars: in vivo, read-out: Vdss
measurementKind: Vd (L/kg)

smilesNotation	measurementKind	val
COc1ccc(OC)c2c(C(=O)C(=O)N3CCN(C(=O)c4ccccc4)CC3)c[nH]c12	Vd	0.52
O=C(C(=O)N1CCN(C(=O)c2ccccc2)CC1)c1c[nH]c2c(F)ccc(F)c12	Vd	0.85

---

- protocolDescription: Mean residence time in rat at 1 mg/kg, iv dosed as solution in PEG400/EtOH
- Type: ADME, organism-based
- Design: dose 1 mg/kg, route intravenous
- particulars: in vivo
MRT values for the compounds below.

smilesNotation	MRT (h)
O=C(C(=O)N1CCN(C(=O)c2ccccc2)CC1)c1c[nH]c2c(F)ccc(F)c12	0.317
COc1ccc(OC)c2c(C(=O)C(=O)N3CCN(C(=O)c4ccccc4)CC3)c[nH]c12	1.7

---

- protocolDescription: Cmax in dog at 1 mg/kg, po dosed as nanosuspension
- Format: ADME, organism-based, Canis lupus familiaris
- Set-up: dose 1 mg/kg, route oral
- particulars: in vivo

smilesNotation	displayUnit	Cmax
O=C(C(=O)N1CCN(C(=O)c2ccccc2)CC1)c1c[nH]c2cccc(F)c12	ng/mL	160

---

- protocolDescription: Cmax in dog at 1 mg/kg, po dosed as micronized suspension
- Type: ADME, organism-based, Canis lupus familiaris
- Parameters: dose 1 mg/kg, route oral
- particulars: in vivo
measurementKind: Cmax (ng/mL)

smilesNotation	val
O=C(C(=O)N1CCN(C(=O)c2ccccc2)CC1)c1c[nH]c2cccc(F)c12	60

---

- protocolDescription: Cmax in dog at 1 mg/kg, po dosed as solution in PEG400/EtOH
- Format: ADME, organism-based, Canis lupus familiaris
- Parameters: dose 1 mg/kg, route oral
- particulars: in vivo

smilesNotation	Cmax (ng/mL)
O=C(C(=O)N1CCN(C(=O)c2ccccc2)CC1)c1c[nH]c2cccc(F)c12	560

---

- protocolDescription: Terminal half life in rat at 5 mg/kg, iv dosed as solution in PEG400/EtOH
- Format: ADME, organism-based
- Design: dose 5 mg/kg, route intravenous
- particulars: in vivo, read-out: beta t1/2
half-life values for the molecules below.

smilesNotation	half-life (min)
O=C(C(=O)N1CCN(C(=O)c2ccccc2)CC1)c1c[nH]c2cccc(F)c12	28
O=C(C(=O)N1CCN(C(=O)c2ccccc2)CC1)c1c[nH]c2ccccc12	30

---

- protocolDescription: Clearance in rat at 5 mg/kg, iv dosed as solution in PEG400/EtOH
- Format: ADME, organism-based
- Design: dose 5 mg/kg, route intravenous
- particulars: in vivo
measurementKind: clearance

smilesNotation	measurementKind	val
O=C(C(=O)N1CCN(C(=O)c2ccccc2)CC1)c1c[nH]c2cccc(F)c12	clearance	48 mL/min/kg
O=C(C(=O)N1CCN(C(=O)c2ccccc2)CC1)c1c[nH]c2ccccc12	clearance	57 mL/min/kg

Recorded values, source ChEMBL document CHEMBL1153340.
